test system: cotton pellet induced granuloma; test: Cotton pellets induced granuloma assay; format: in vivo; conditions: rat, 100 mg kg^−1 p.o. for 8 d, mean ± SEM
Weight, Dry (cotton pellet) for assorted compounds
Record the value in mg, omitting the unit from your answer.

Cc1ccc(-c2cc(C(F)(F)F)nn2-c2ccc(S(N)(=O)=O)cc2)cc1 [Celecoxib, reference compound] : 78.80

**Q:** Provide Weight, Dry (cotton pellet) value for the following compound: O=S(=O)(NC[C@@H](O)[C@@H]1CCc2cc(F)ccc2O1)c1ccc(F)cc1F [Compound 8f]
**A:** 70.66

**Q:** Provide Weight, Dry (cotton pellet) value for the following compound: O=S(=O)(NC[C@@H](O)[C@@H]1CCc2cc(F)ccc2O1)c1cccc(C(F)(F)F)c1 [Compound 8e]
**A:** 76.45

**Q:** Provide Weight, Dry (cotton pellet) value for the following compound: O=S(=O)(NC[C@@H](O)[C@@H]1CCc2cc(F)ccc2O1)c1ccc(Br)cc1 [Compound 8b]
**A:** 84.10

**Q:** Provide Weight, Dry (cotton pellet) value for the following compound: O=S(=O)(NC[C@@H](O)[C@@H]1CCc2cc(F)ccc2O1)c1cccs1 [Compound 8c]
**A:** 91.30

---

test system: Aspergillus flavus
READOUT_NAME: MIC

# annotated cases, reported MIC shown
O=S(=O)(NC[C@@H](O)[C@@H]1CCc2cc(F)ccc2O1)c1ccc(Br)cc1 [Compound 8b] : 17.8 µg/mL
O=[N+]([O-])c1cc(S(=O)(=O)NC[C@@H](O)[C@@H]2CCc3cc(F)ccc3O2)ccc1Cl [Compound 8d] : 17 µg/mL
O=S(=O)(NC[C@@H](O)[C@@H]1CCc2cc(F)ccc2O1)c1cccs1 [Compound 8c] : 16.7 µg/mL
CCOC(=O)NC[C@@H](O)[C@@H]1CCc2cc(F)ccc2O1 [Compound 9d] : 25.2 µg/mL
O=S(=O)(NC[C@@H](O)[C@@H]1CCc2cc(F)ccc2O1)c1cccc(C(F)(F)F)c1 [Compound 8e] : 14.1 µg/mL
O=S(=O)(NC[C@@H](O)[C@@H]1CCc2cc(F)ccc2O1)c1ccc(F)cc1F [Compound 8f] : 16.2 µg/mL
CC(C)COC(=O)NC[C@@H](O)[C@@H]1CCc2cc(F)ccc2O1 [Compound 9c] : 19.8 µg/mL
O=C(NC[C@@H](O)[C@@H]1CCc2cc(F)ccc2O1)OCC(Cl)(Cl)Cl [Compound 9b] : 23.8 µg/mL
COC(=O)NC[C@@H](O)[C@@H]1CCc2cc(F)ccc2O1 [Compound 9a] : 12.7 µg/mL

// next item, MIC requested
**Q:** Provide MIC value for the following compound: O=S(=O)(NC[C@@H](O)[C@@H]1CCc2cc(F)ccc2O1)c1ccc(F)cc1 [Compound 8a]
**A:** 23.1 µg/mL

---

Biological target: COX-1 (Ovis aries)
Sequence (P05979 25-600): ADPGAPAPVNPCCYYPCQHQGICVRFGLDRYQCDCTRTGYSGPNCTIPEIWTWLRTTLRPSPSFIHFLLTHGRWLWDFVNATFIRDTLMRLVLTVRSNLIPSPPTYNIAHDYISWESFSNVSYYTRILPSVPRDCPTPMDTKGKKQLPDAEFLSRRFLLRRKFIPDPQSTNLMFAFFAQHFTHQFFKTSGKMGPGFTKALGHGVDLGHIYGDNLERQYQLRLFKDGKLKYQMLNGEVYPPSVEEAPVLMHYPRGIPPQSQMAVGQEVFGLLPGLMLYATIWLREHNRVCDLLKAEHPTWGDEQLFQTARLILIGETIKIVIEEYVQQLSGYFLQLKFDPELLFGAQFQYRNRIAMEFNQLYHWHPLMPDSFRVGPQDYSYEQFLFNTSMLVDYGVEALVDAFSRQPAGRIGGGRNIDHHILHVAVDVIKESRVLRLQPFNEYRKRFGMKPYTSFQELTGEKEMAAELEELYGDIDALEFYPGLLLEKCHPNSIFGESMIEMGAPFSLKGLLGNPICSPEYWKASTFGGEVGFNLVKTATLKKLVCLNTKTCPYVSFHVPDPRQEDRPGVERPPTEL
Assay: Colorimetric COX
Format: biochemical, ovine
Details: read-out: % inhibition of COX, COX-1
// label = rule met if inhibition at 200 µM is not less than 70%, otherwise rule not met

O=S(=O)(NC[C@@H](O)[C@@H]1CCc2cc(F)ccc2O1)c1ccc(F)cc1 : rule not met

**Q:** Assess whether reported inhibition at 200 µM for "O=S(=O)(NC[C@@H](O)[C@@H]1CCc2cc(F)ccc2O1)c1ccc(F)cc1F" sits at 70% or higher.
**A:** rule met

**Q:** Assess whether reported inhibition at 200 µM for "COC(=O)NC[C@@H](O)[C@@H]1CCc2cc(F)ccc2O1" sits at 70% or higher.
**A:** rule met

**Q:** Assess whether reported inhibition at 200 µM for "CC(C)COC(=O)NC[C@@H](O)[C@@H]1CCc2cc(F)ccc2O1" sits at 70% or higher.
**A:** rule not met

**Q:** Assess whether reported inhibition at 200 µM for "CCOC(=O)NC[C@@H](O)[C@@H]1CCc2cc(F)ccc2O1" sits at 70% or higher.
**A:** rule not met
